As shown below, each of these binders has a reported binding affinity ratio (IC50 of standard peptide / IC50 of test peptide) value.
biological target: HLA-A*0201 (Human); experiment: competition with 125I-labelled probe peptide for purified HLA, gel filtration

BINDER | RESULT
LLPAILSPGA (modifications not checked) [HCV peptide … (polyprotein position 1887)] | 0.0061
LVDILAGYGA (modifications not checked) [HCV peptide … (polyprotein position 1853)] | -0.0001
LVNLLPAIL (modifications not checked) [HCV peptide … (polyprotein position 1884)] | 0.0002

Input line: For the binder LIVFPDLGV (modifications not checked) [HCV peptide … (polyprotein position 2612)] , give its reported binding affinity ratio (IC50 of standard peptide / IC50 of test peptide).
Output line: 0.0002

Input line: For the binder LVAYQATVCA (modifications not checked) [HCV peptide … (polyprotein position 1591)] , give its reported binding affinity ratio (IC50 of standard peptide / IC50 of test peptide).
Output line: 0.0002
